- Experimental System: the molecule itself
- Method Notes: cross-linking; 1 mg/ml protein in 50 mM HEPES pH7.5, 50 mM sodium sulfate; DSS at 5X molar concentration, 1 h at room temperature; SDS-PAGE, coomassie blue

Protein	binding result
PCAF HAT domain (amino acids 493-658) L512A/M513A/V516A (domain or fragment, human, UniProt Q92831 493-658, looked up, p300/CBP associated factor (PCAF, KAT2B), human, HAT domain, residues 493-658; also called LMV512AAA) VIEFHVVGNSLNQKPNKKIAAWLAGLQNVFSHQLPRMPKEYITRLVFDPKHKTLALIKDGRVIGGICFRMFPSQGFTEIVFCAVTSNEQVKGYGTHLMNHLKEYHIKHDILNFLTYADEYAIGYFKKQGFSKEIKIPKTKYVGYIKDYEGATLMGCELNPRIPYTE	binds
PCAF HAT domain (amino acids 493-658) L512D/V516D/F539A (domain or fragment, human, UniProt Q92831 493-658, looked up, p300/CBP associated factor (PCAF, KAT2B), human, HAT domain, residues 493-658; also called LVF512DDA) VIEFHVVGNSLNQKPNKKIDMWLDGLQNVFSHQLPRMPKEYITRLVADPKHKTLALIKDGRVIGGICFRMFPSQGFTEIVFCAVTSNEQVKGYGTHLMNHLKEYHIKHDILNFLTYADEYAIGYFKKQGFSKEIKIPKTKYVGYIKDYEGATLMGCELNPRIPYTE	binds
PCAF HAT domain (amino acids 493-658) F539A (domain or fragment, human, UniProt Q92831 493-658, looked up, p300/CBP associated factor (PCAF, KAT2B), human, HAT domain, residues 493-658) VIEFHVVGNSLNQKPNKKILMWLVGLQNVFSHQLPRMPKEYITRLVADPKHKTLALIKDGRVIGGICFRMFPSQGFTEIVFCAVTSNEQVKGYGTHLMNHLKEYHIKHDILNFLTYADEYAIGYFKKQGFSKEIKIPKTKYVGYIKDYEGATLMGCELNPRIPYTE	binds

Attribution: paper PMC3897949
